Assay Overview: recombinant barcode read abundance after kanamycin selection (control-corrected) (log10(CPM+1)); higher = more efficient recombination; sequences stand for … in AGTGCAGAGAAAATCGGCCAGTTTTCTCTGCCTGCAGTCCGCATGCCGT…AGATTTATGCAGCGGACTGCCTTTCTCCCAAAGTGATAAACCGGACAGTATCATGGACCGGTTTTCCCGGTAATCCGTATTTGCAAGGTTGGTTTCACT; site = the 11-nt target;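 also: IS621 recombinase and bridge RNA in Escherichia coli cells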
Endpoint Label: recombinant barcode read abundance (log10)
Lab note: write the figure by itself, no unit.

Example sequences with recorded recombinant barcode read abundance (log10):
Sequence Content	Measured Value
AATGGGCCTTGGGTTCTAACCTGTTGCCT (site AATGGGCCTAG)	0.273
TGAGGCACTTGGGTTCTAACCTGTTGCCT (site TGAGGATCTAG)	0.03

Supply recorded recombinant barcode read abundance (log10) for TTGGTGCCTTGGGTTCTAACCTGTTGCCT (site TTGGTCCCTAG) here. 0.0442

Look up recombinant barcode read abundance (log10) of TAGTGCTCTTGGGTTCTAACCTGTTGCCA (site TAGTGCTCTGG) and report it. 0.00954

Identify measured recombinant barcode read abundance (log10) associated with GTCCCTCCTTGGGTTCTAACCTGTTGCTT (site GTCCCTCCTAT) 0.453
